Each recorded value in this set is attributed to patent US9872870B2.

- Tested on: NCI-H929 MM cells
- ASSAY_PROCEDURE: Cytotoxicity assay (Cell Counting Kit-8)
- Format: cell-based, human
- STUDY_CONDITIONS: NCI-H929, 48 h, Dox equivalents
OUTCOME_MEASURE: IC50 (nM)
Express your answer in nM, writing the number without its unit.

Query block: Form field: reported IC50 of COc1cccc2c1C(=O)c1c(O)c3c(c(O)c1C2=O)C[C@@](O)(C(=O)CO)C[C@@H]3O[C@H]1C[C@H](N)[C@H](O)[C@H](C)O1 [free Dox, doxorubicin]
Result block: 190
